# PROTOCOL: Metabolic stability in human liver microsomes assessed as intrinsic clearance per mg of protein at 1 uM incubated for 60 mins presence of NADPH regenerating buffer system by LC-MS analysis
# Assay type: ADME, Microsome
# RUN_CONDITIONS: 1 h
Threshold check on CLH: strictly below 500 µL/min/mg is 1 (yes); on or above 500 µL/min/mg is 0 (no).

Cc1ccccc1N(C)C(=O)C(c1cccnc1)N(Cc1cc(C(F)(F)F)ccc1F)C1CC1 (racemic) = 0 (no)

Confirm or reject: CLH of Cc1ccccc1N(C)C(=O)C(c1cccnc1)N(Cc1cccc(C(F)(F)F)c1)C1CC1 (racemic) lies strictly below 500 µL/min/mg
0 (no)

Below 500 µL/min/mg on CLH? Entry O=C(C(c1cccnc1)N(Cc1cccc(C(F)(F)F)c1)C1CC1)N1CCCCC1 (racemic)
1 (yes)

Strictly below 500 µL/min/mg in CLH? COc1ccc(C(F)(F)F)cc1CN(C1CC1)C(c1cccnc1)c1nnnn1-c1ccccc1C (racemic)
1 (yes)

Dear reviewer, please state whether Cc1ccccc1N(C)C(=O)C(c1cncnc1)N(Cc1cccc(C(F)(F)F)c1)C1CC1 (racemic) has CLH strictly beneath 500 µL/min/mg.
0 (no)

====

Listed next: entries and their corresponding solubility kinetic.
# PROTOCOL: Kinetic solubility of compound in PBS at pH 6.5 by HPLC analysis
# Format: physicochemical
# RUN_CONDITIONS: read-out: Kinetic_solubility
Value expressed in µg/mL; do not type the unit.

# example entries with known answers
COc1ccc(C(F)(F)F)cc1CN(C1CC1)C(c1cccnc1)c1nnnn1-c1ccccc1C (racemic) = 1.6
Cc1ccccc1N(C)C(=O)C(c1cccnc1)N(Cc1cccc(C(F)(F)F)c1)C1CC1 (racemic) = 6.3
Cc1ccccc1N(C)C(=O)C(c1cccnc1)N(Cc1cc(C(F)(F)F)ccc1F)C1CC1 (racemic) = 1.5
Cc1ccccc1-n1nnnc1C(c1cncnc1)N(Cc1cccc(C(F)(F)F)c1)C1CC1 (racemic) = 1.5
Cc1ccccc1-n1nnnc1C(c1cccnc1)N(Cc1cccc(C(F)(F)F)c1)C1CC1 (racemic) = 1.5

# context switch: different compound, same solubility kinetic
# input compound: O=C(C(c1cccnc1)N(Cc1cccc(C(F)(F)F)c1)C1CC1)N1CCCCC1 (racemic) ; wanted: its solubility kinetic
25

====

# Tested on: Plasmodium falciparum
# PROTOCOL: Antiplasmodial activity against asexual blood stage Plasmodium falciparum 3D7 infected in human RBC assessed as parasite growth inhibition incubated for 72 hrs by SYBR Green dye based fluorescence assay
# Format: functional, organism-based
# RUN_CONDITIONS: Plasmodium falciparum, 3D7, Erythrocyte, 72 h
pEC50: −log10 of the molar value.
// label = true if pEC50 is not less than 6, otherwise false

Please review the entries below; each comes with its answer.
Cc1cc(Nc2ccc(S(F)(F)(F)(F)F)cc2)n2nc(C(C)(F)F)nc2n1 = true
O=C1C(O)=C([C@H]2CC[C@H](c3ccc(Cl)cc3)CC2)C(=O)c2ccccc21 = true
CCN(CC)CCCC(C)Nc1ccnc2cc(Cl)ccc12 (stereo not drawn) = true
Cc1ccccc1-n1nnnc1C(c1cncnc1)N(Cc1ccc(F)c(C(F)(F)F)c1)C1CC1 (racemic) = true
Cc1ccccc1-n1nnnc1C(c1cncnc1)N(Cc1cccc(C(F)(F)F)c1F)C1CC1 (racemic) = true

Decide: is the reported value of pEC50 for Cc1ccccc1-n1nnnc1C(C1CC1)N(Cc1cccc(C(F)(F)F)c1)C1CC1 (racemic) equal to or greater than 6?
false

Is pEC50 at least 6? Consider COc1ccc(C(F)(F)F)cc1CN(C)C(c1ccccc1)c1nnnn1-c1ccccc1C (racemic)
false
